Entries and their measured protein stability index follow.
B1: SMTNL2 (parent)
chain: ETAAGKGKGEARARLKRSQSFGVA

Variants of: B1
test_method_notes: protein stability index of a GFP-peptide fusion (GPS, HEK-293T) (PSI 1-6); higher = more stable;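 note: lentivirally expressed fusions sorted by FACS into six bins by GFP to DsRed ratio, PSI derived from sequencing read proportions per bin multiplied by bin number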
run_conditions: c terminus: a fixed tail appended
reported_property: protein stability index

variant_label=G7R reported_property="protein stability index" numeric_result=4.11
variant_label=K6Y reported_property="protein stability index" numeric_result=3.9
variant_label=A4S reported_property="protein stability index" numeric_result=4.02
variant_label=A11C reported_property="protein stability index" numeric_result=3.96
variant_label=A11Y reported_property="protein stability index" numeric_result=4.06
variant_label=R12F reported_property="protein stability index" numeric_result=3.9
variant_label=T2I reported_property="protein stability index" numeric_result=4.11
